STRUCTURE NOTATION: CCc1nc2c(cc1OC)c(C#N)c(-c1ccc(S(=O)(=O)N[C@@H](C)C(F)(F)F)cn1)n2C1CCC1
melting point: 186 to 189 °C

STRUCTURE NOTATION: C[C@@H](NS(=O)(=O)c1ccc(-c2c(C#N)c3cc(C4CC4)cnc3n2C2CCC2)nc1)C(F)(F)F
melting point: 138 to 147 °C

STRUCTURE NOTATION: N#Cc1c(-c2ccc(NS(=O)(=O)C3CC3)cc2)n(C2CCCCC2)c2ncc(C(F)(F)F)cc12
melting point: 225 to 227 °C

STRUCTURE NOTATION: CC(C)(C)NS(=O)(=O)c1ccc(-c2c(C#N)c3cc(C(F)(F)F)cnc3n2C2CCCCC2)cc1
melting point: 176 to 178 °C

STRUCTURE NOTATION: NC(=O)c1c(-c2ccc(S(=O)(=O)NC3(C(F)(F)F)CC3)cc2)n(C2CCC2)c2ncc(C3CC3)cc12
melting point: 224 to 229 °C

STRUCTURE NOTATION: CN(C)c1cnc2c(c1)c(C#N)c(-c1ccc(NS(=O)(=O)C(C)(C)C)cc1)n2C1CCC1
melting point: 200 to 202 °C

STRUCTURE NOTATION: C[C@H](NS(=O)(=O)c1ccc(-c2c(C(N)=O)c3cc(C(F)(F)F)cnc3n2C2CCC2)nc1)C(F)(F)F
melting point: 219 to 221 °C

STRUCTURE NOTATION: CC(C)S(=O)(=O)Nc1ccc(-c2c(C#N)c3cc(C(F)(F)F)cnc3n2C2CCCCC2)cc1
melting point: 228 to 230 °C

STRUCTURE NOTATION: COc1cnc2c(c1)c(C#N)c(-c1ccc(S(=O)(=O)NC(C)(C)C)cn1)n2C1CCC1
melting point: 174 to 176 °C

STRUCTURE NOTATION: Cc1cnc2c(C#N)c(-c3ccc(S(=O)(=O)N[C@@H](C)C(F)(F)F)cn3)n(C3CCC3)c2c1
melting point: 217 to 218 °C

STRUCTURE NOTATION: CC(C)S(=O)(=O)Nc1ccc(-c2c(C(N)=O)c3cc(C(F)(F)F)cnc3n2C2CCCCC2)cc1
melting point: 203 to 205 °C

STRUCTURE NOTATION: CC(C)(NS(=O)(=O)c1ccc(-c2c(C(N)=O)c3cc(Cl)cnc3n2C2CCC2)nc1)C(F)(F)F
melting point: 239 to 241 °C

STRUCTURE NOTATION: CCCn1c(-c2ccc(S(=O)(=O)N[C@@H](C)C(F)(F)F)cc2)c(C#N)c2cc(C)cnc21
melting point: 235 to 240 °C

STRUCTURE NOTATION: CSc1cnc2c(c1)c(C#N)c(-c1ccc(S(=O)(=O)N[C@H](C)C(F)(F)F)cn1)n2C1CCCC1
melting point: 124 to 127 °C

STRUCTURE NOTATION: Cc1cnc2c(C#N)c(-c3ccc(S(=O)(=O)N[C@@H](C)C(F)(F)F)cn3)n(-c3cscn3)c2c1
melting point: 244 to 245 °C

STRUCTURE NOTATION: Cc1ncc2c(C#N)c(-c3ccc(S(=O)(=O)N[C@@H](C)C(F)(F)F)cc3)n(C3CCCC3)c2n1
melting point: 202 to 204 °C

STRUCTURE NOTATION: N#Cc1c(-c2ccc(S(=O)(=O)NC3(C(F)(F)F)CC3)cc2)n(C2CCCC2)c2cc(Cl)ncc12
melting point: 288 to 289 °C

STRUCTURE NOTATION: C[C@H](NS(=O)(=O)c1cnc(-c2c(C#N)c3cc(Cl)cnc3n2C2CCC2)nc1)C(F)(F)F
melting point: 205 to 207 °C

STRUCTURE NOTATION: CC(C)(C)NS(=O)(=O)c1ccc(-c2c(C#N)c3cc(C4CC4)cnc3n2C2CCC2)cc1
melting point: 210 to 215 °C

STRUCTURE NOTATION: COc1ccc2c(C#N)c(-c3ccc(S(=O)(=O)N[C@@H](C)C(F)(F)F)cn3)n(C3CCC3)c2n1
melting point: 193 to 194 °C

STRUCTURE NOTATION: C[C@H](NS(=O)(=O)c1ccc(-c2c(C(N)=O)c3cc(F)cnc3n2C2CCC2)nc1)C(F)(F)F
melting point: 223 to 225 °C

STRUCTURE NOTATION: CCc1cnc2c(c1)c(C#N)c(-c1ccc(S(=O)(=O)NC(CF)CF)cc1)n2C1CCC1
melting point: 165 to 171 °C

STRUCTURE NOTATION: CCc1cnc2c(c1)c(C#N)c(-c1ccc(S(=O)(=O)NC3(C)CC3)cc1)n2C1CCC1
melting point: 157 to 163 °C

STRUCTURE NOTATION: CC(C)(C)NS(=O)(=O)c1ccc(-c2c(C(N)=O)c3cc(C4CC4)cnc3n2C2CCC2)nc1
melting point: 245 to 252 °C

STRUCTURE NOTATION: N#Cc1c(-c2ncc(S(=O)(=O)NC(CF)CF)cn2)n(C2CCC2)c2ncc(Cl)cc12
melting point: 199 to 200 °C

STRUCTURE NOTATION: NC(=O)c1c(-c2ccc(S(=O)(=O)NC3(C(F)(F)F)CC3)cc2)n(C2CCCCC2)c2ncc(C(F)(F)F)cc12
melting point: 303 to 306 °C

STRUCTURE NOTATION: COc1cnc2c(c1)c(C#N)c(-c1cc(C)c(S(=O)(=O)N[C@@H](C)C(F)(F)F)cn1)n2C1CCC1
melting point: 175 to 179 °C

STRUCTURE NOTATION: CC(C)(C)NS(=O)(=O)c1ccc(-c2c(C#N)c3cc(F)cnc3n2-c2ccccn2)nc1
melting point: 202.2 to 204.3 °C

STRUCTURE NOTATION: CC(C)S(=O)(=O)Nc1ccc(-c2c(C#N)c3cc(C(F)F)cnc3n2C2CCC2)cc1
melting point: 179 to 180 °C

STRUCTURE NOTATION: Cc1cnc2c(c1)c(C#N)c(-c1ccc(S(=O)(=O)N[C@@H](C)C(F)(F)F)cn1)n2-c1cc(C#N)ncn1
melting point: 120 to 122 °C

The values you see were collected from patent US9593108B2.
